Target: Gag-Pol polyprotein [588-1027]/[588-1147] (Human immunodeficiency virus 1)
REPORTED_METRIC: IC50

[[record]]
compound = "CCC(c1ccccc1)c1cc(=O)[nH]c(SC2CCCC2)n1 (stereo unspecified)"
reported_metric = "IC50"
observed_measurement = "> 10 µM"

